system: A549 (lung adenocarcinoma); assay: Antiproliferative activity (CCK-8 cell viability), A549; format: cell-based; settings: Homo sapiens, Compound concentration: 10 μM, 72 h, read-out: Antiproliferative activity in cancerous cells, A549 (inhibition of cell growth)
Readings of inhibition at 10 µM for the listed compounds

Here's what some known entries look like.
• CC1=C(CC(=O)O)c2cc(C)ccc2/C1=C\c1ccc(COCc2ccc(F)cc2)cc1 [B110] = ≥ 50%
• COc1ccc(C(=O)c2ccc(/C=C3/C(C)=C(CC(=O)O)c4cc(F)ccc43)cc2)cc1 [C306] = 30 to 50%
• CC1=C(CC(=O)O)c2cc(Br)ccc2/C1=C\c1ccc(COCc2ccc(Cl)cc2)cc1 [B120] = ≥ 50%
• CC1=C(CC(=O)O)c2cc(F)ccc2/C1=C\c1ccc(COCc2ccc(F)c(F)c2)cc1 [B105] = ≥ 50%
• O=C(O)CC1=C(Cc2ccc(C(F)(F)F)cc2)/C(=C/c2cccc(COc3ccccc3)c2)c2ccc(F)cc21 [A10] = ≥ 50%
• CC1=C(CC(=O)O)c2c(F)cc(F)cc2/C1=C\c1cccc(C(F)(F)F)c1 [D6] = < 30%
• CC1=C(CC(=O)O)c2cc(F)ccc2/C1=C\c1ccc(C(=O)c2cc3ccccc3o2)cc1 [C309] = 30 to 50%
• COc1ccc2c(c1)C(CC(=O)O)=C(C)/C2=C/c1ccc(Oc2cccc(Cl)c2)cc1 [C73] = < 30%
• CC1=C(CC(=O)O)c2cc(Cl)ccc2/C1=C\c1ccc(CCCc2ccc(F)cc2)cc1 [B125] = ≥ 50%
• CC1=C(CC(=O)O)c2cc(F)ccc2/C1=C\c1ccc(Oc2ccc(Cl)cc2)cc1F [C78] = ≥ 50%

What inhibition at 10 µM value was documented for this compound, CCc1ccc2c(c1)C(CC(=O)O)=C(C)/C2=C/c1cccc(Oc2ccccc2)c1 [C18] ?
≥ 50%

What inhibition at 10 µM value was documented for this compound, CC1=C(CC(=O)O)c2cc(Br)ccc2/C1=C/c1ccc(Oc2ccc(Cl)cc2)cc1 [E27] ?
≥ 50%

What inhibition at 10 µM value was documented for this compound, CC1=C(CC(=O)O)c2cc(F)ccc2/C1=C\c1ccc(Oc2ccc(I)cc2)cc1 [C57] ?
≥ 50%

What inhibition at 10 µM value was documented for this compound, COc1ccc(S(=O)(=O)c2ccc(/C=C3/C(C)=C(CC(=O)O)c4cc(F)ccc43)cc2)cc1 [C41] ?
≥ 50%

What inhibition at 10 µM value was documented for this compound, COc1ccc2c(c1)C(CC(=O)O)=C(C)/C2=C/c1ccc(Oc2ccc(Cl)cc2)cc1C [C74] ?
≥ 50%

What inhibition at 10 µM value was documented for this compound, CC1=C(CC(=O)O)c2cc(F)ccc2/C1=C/c1ccc(F)cc1OCc1ccccc1 [E5] ?
≥ 50%

What inhibition at 10 µM value was documented for this compound, CC1=C(CC(=O)O)c2c(F)ccc(F)c2/C1=C/c1ccc(C(C)C)cc1 [E12] ?
30 to 50%

What inhibition at 10 µM value was documented for this compound, CC1=C(CC(=O)NCCN2CCOCC2)c2cc(F)ccc2/C1=C\c1ccc(Oc2ccc(F)cc2)cc1 [C39] ?
30 to 50%

What inhibition at 10 µM value was documented for this compound, CC1=C(CC(=O)O)c2cc(F)ccc2/C1=C\c1ccc(OCCc2ccccc2)cc1 [B30] ?
≥ 50%

What inhibition at 10 µM value was documented for this compound, CC1=C(CC(=O)O)c2cc(Cl)ccc2/C1=C\c1ccc(Oc2ccc(F)cc2)cc1 [C63] ?
30 to 50%
